Data origin: patent US20260184693A1

# measuredTarget: human SLC6A19 (Homo sapiens, UniProt Q695T7)
# Construct: expressed in transfected cells
# Sequence (Q695T7 1-634): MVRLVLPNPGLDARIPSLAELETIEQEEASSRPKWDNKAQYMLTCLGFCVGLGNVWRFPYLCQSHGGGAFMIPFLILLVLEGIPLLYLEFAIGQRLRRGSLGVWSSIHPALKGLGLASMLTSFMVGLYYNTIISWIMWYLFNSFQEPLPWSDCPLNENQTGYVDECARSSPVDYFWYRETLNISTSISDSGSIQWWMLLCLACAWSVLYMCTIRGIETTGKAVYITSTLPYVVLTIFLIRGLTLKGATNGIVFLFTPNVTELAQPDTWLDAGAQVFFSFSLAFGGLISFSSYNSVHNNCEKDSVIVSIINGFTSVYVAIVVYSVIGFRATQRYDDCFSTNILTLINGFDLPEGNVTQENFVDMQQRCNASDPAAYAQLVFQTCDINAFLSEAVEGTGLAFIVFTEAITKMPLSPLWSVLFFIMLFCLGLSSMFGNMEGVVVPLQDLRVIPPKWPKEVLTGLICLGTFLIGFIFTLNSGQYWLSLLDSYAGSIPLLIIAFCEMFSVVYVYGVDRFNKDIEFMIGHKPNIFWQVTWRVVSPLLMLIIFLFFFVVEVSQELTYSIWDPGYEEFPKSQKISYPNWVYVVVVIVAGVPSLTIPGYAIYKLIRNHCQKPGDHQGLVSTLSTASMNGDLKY
# Sequence (Q9HBJ8 15-222 partner): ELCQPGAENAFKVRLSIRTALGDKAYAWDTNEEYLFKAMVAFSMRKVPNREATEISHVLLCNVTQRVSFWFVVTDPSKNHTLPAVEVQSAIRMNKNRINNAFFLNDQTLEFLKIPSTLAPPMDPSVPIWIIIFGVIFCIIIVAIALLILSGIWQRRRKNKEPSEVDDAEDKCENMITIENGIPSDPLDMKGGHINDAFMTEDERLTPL
# experimentNotes: Example B-1: L-[3H]leucine uptake, liquid scintillation, in CHO cells with doxycycline-inducible expression of human SLC6A19 and TMEM27
# Type: cell-based
# particulars: read-out: SLC6A19_Radioligand Uptake Assay IC50
For each entry below, report its IC50 value.
Answers are plain numbers, in nM.

{"columns": ["molecule", "measuredTarget", "IC50 (nM)"],
 "data": [
  ["CN(C(=O)NCc1cc2cc(Cl)ccc2[nH]1)[C@@H]1CCCN(C(=O)Cc2ccn(C)n2)C1", "human SLC6A19 (Homo sapiens, UniProt Q695T7)", 219],
  ["CN(C(=O)NCc1cc2cc(Cl)ccc2[nH]1)[C@@H]1CCCN(C(=O)c2ccccc2O)C1", "human SLC6A19 (Homo sapiens, UniProt Q695T7)", 640],
  ["CN(C(=O)NCc1cc2cc(Cl)ccc2[nH]1)[C@@H]1CCCN(C(=O)Cc2cocn2)C1", "human SLC6A19 (Homo sapiens, UniProt Q695T7)", 168],
  ["CC(=O)N1C[C@H](N(C)C(=O)NCc2cc3cc(Cl)ccc3[nH]2)CC[C@@H]1C (single isomer, unassigned)", "human SLC6A19 (Homo sapiens, UniProt Q695T7)", 558]
]}

# per-item lookup of IC50; items listed below
1. CCN(C(=O)NCc1cc2cc(Cl)ccc2[nH]1)[C@@H]1CCCN(C(=O)C2CCC2)C1
2. CN(C(=O)NCc1cc2cc(Cl)ccc2[nH]1)[C@@H]1CCCN(C(=O)c2cccc(O)c2)C1
3. CN(C(=O)NCc1cc2cc(Cl)ccc2[nH]1)[C@@H]1CCCN(C(=O)Cc2ncco2)C1

A.
[230, 483, 256]

----------
# measuredTarget: human SLC6A19 (Homo sapiens)
# Construct: expressed in transfected cells
# Sequence (Q695T7 1-634): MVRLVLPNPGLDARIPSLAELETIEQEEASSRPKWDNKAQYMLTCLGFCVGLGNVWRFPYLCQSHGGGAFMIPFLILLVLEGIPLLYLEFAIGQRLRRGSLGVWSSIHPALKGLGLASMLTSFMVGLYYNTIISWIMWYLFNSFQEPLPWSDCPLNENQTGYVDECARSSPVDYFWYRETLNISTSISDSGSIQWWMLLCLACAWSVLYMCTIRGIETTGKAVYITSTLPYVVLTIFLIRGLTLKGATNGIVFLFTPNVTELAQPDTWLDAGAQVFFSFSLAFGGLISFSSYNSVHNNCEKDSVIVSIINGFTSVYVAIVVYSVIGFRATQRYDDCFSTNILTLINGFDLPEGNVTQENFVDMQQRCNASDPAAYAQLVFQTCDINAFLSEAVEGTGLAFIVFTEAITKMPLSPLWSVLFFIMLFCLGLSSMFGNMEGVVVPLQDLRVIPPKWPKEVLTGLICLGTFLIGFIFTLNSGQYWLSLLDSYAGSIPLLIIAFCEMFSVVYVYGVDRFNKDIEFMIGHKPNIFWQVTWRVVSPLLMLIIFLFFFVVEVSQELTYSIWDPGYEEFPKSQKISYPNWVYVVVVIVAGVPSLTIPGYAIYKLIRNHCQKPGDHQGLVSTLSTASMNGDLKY
# Sequence (Q9HBJ8 15-222 partner): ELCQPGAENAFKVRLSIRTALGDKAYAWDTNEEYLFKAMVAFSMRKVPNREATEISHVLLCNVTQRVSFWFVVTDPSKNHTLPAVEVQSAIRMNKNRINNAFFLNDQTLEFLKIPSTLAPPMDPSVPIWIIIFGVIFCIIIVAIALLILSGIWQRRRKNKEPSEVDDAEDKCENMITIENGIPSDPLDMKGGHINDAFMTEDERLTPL
# experimentNotes: Example B2: 13C6,15N-isoleucine uptake, RapidFire mass spectrometry, in CHO cells with doxycycline-inducible expression of human SLC6A19 and TMEM27
# Format: cell-based
# particulars: read-out: SLC6A19_RapidFire Uptake Assay IC50
pIC50: −log10 of the molar value.
Rule: pIC50 of 6 or more gives class 1; anything lower gives class 0.

{"columns": ["molecule", "measuredTarget", "class"],
 "data": [
  ["CC(C(=O)N1CCC[C@@H](N(C)C(=O)NCc2cc3cc(Cl)ccc3[nH]2)C1)n1cncn1 (stereo partly shown)", "human SLC6A19 (Homo sapiens)", "class 0"]
]}

Q. Quick check: does CC(=O)N1CCC[C@@H](N(C)C(=O)NCc2cc3cc(Cl)c(C)cc3[nH]2)C1 have pIC50 greater than or equal to 6?
A. class 1

Q. Quick check: does CN(C(=O)NCc1cc2cc(Cl)ccc2[nH]1)[C@@H]1CCCN(C(=O)C2(O)CCC2)C1 have pIC50 greater than or equal to 6?
A. class 0

Q. Quick check: does CN(C(=O)NCc1cc2cc(Cl)ccc2[nH]1)[C@@H]1CCCN(C(=O)Cc2ccon2)C1 have pIC50 greater than or equal to 6?
A. class 1

Q. Quick check: does Cc1cnoc1C(=O)N1CCC[C@@H](N(C)C(=O)NCc2cc3cc(Cl)ccc3[nH]2)C1 have pIC50 greater than or equal to 6?
A. class 0

Q. Quick check: does CCN(C(=O)NCc1cc2ccc(OCc3ccon3)cc2[nH]1)[C@@H]1CCCN(C(C)=O)C1 have pIC50 greater than or equal to 6?
A. class 1

Q. Quick check: does CC(=O)N1CCC[C@@H](N(C(=O)NCc2cc3cc(Cl)ccc3[nH]2)C2CC2)C1 have pIC50 greater than or equal to 6?
A. class 1

Q. Quick check: does CN(C(=O)NCc1cc2cc(Cl)ccc2[nH]1)[C@@H]1CCCN(C(=O)C2CC(F)C2)C1 (stereo partly shown) have pIC50 greater than or equal to 6?
A. class 1

Q. Quick check: does CC(=O)N1CCC[C@@H](N(C)C(=O)NCc2cc3cc(Cl)c(OCc4ccon4)cc3[nH]2)C1 have pIC50 greater than or equal to 6?
A. class 1

Q. Quick check: does CN(C(=O)NCc1cc2cc(Cl)ccc2[nH]1)[C@@H]1CCCN(C(=O)C(C)(C)O)C1 have pIC50 greater than or equal to 6?
A. class 0

Q. Quick check: does COc1cc2[nH]c(CNC(=O)N(C)[C@@H]3CCCN(C(C)=O)C3)cc2cc1Cl have pIC50 greater than or equal to 6?
A. class 1

Q. Quick check: does CN(C(=O)NCc1cc2cc(Cl)ccc2[nH]1)[C@@H]1CCCN(C(=O)N2CCC2)C1 have pIC50 greater than or equal to 6?
A. class 1

Q. Quick check: does CN(C(=O)NCc1cc2cc(Cl)ccc2[nH]1)[C@@H]1CCCN(C(=O)c2ccnn2C)C1 have pIC50 greater than or equal to 6?
A. class 0

Q. Quick check: does CN(C)C(=O)NCC(=O)N1CCC[C@@H](N(C)C(=O)NCc2cc3cc(Cl)ccc3[nH]2)C1 have pIC50 greater than or equal to 6?
A. class 0

----------
For each entry below, report its IC50 value.
# measuredTarget: human SLC6A19 (Homo sapiens, UniProt Q695T7)
# Construct: expressed in transfected cells
# experimentNotes: Example B-1: L-[3H]leucine uptake, liquid scintillation, in CHO cells with doxycycline-inducible expression of human SLC6A19 and TMEM27
# Type: cell-based
# particulars: read-out: SLC6A19_Radioligand Uptake Assay IC50
# number then unit; no other words

{"columns": ["cpdSmiles", "result"],
 "data": [
  ["CN(C(=O)NCc1cc2cc(Cl)ccc2[nH]1)[C@@H]1CCCN(C(=O)c2cccnc2)C1", "434 nM"]
]}

# per-item lookup of IC50; items listed below
1. CC(=O)N1CCC[C@@H](N(C)C(=O)NCc2cc3cc(C)ccc3[nH]2)C1
2. CC(=O)N1CCC[C@@H](N(C)C(=O)NCc2cc3ccc(C)cc3[nH]2)C1
3. CC(=O)N1CCC[C@@H](N(C)C(=O)NCc2cc3cc(Cl)ccc3[nH]2)C1

A.
["273 nM", "1290 nM", "183 nM"]
